Molecular target: T1, A Proliferation Inducing Ligand (APRIL) (human), O75888
T1 chain: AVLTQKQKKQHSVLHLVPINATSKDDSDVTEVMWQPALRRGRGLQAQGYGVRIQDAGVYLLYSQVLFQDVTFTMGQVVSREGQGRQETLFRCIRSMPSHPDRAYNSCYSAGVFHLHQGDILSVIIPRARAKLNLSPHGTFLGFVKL
Assay: flow cytometry titration of soluble APRIL (about 0.0005 to 10 nM) on yeast displaying BCMA; one site specific binding fit, nM is the unit of the concentration axis
Conditions: remark: other sources report otherwise
readout-label: Kd (nM)
Number in nM, nothing else.

input: GET /values?readout=Kd&item= wild type human BCMA extracellular domain (sBCMA WT ECD), Q02223 1-54 (receptor) MLQMAGQCSQNEYFDSLLHACIPCQLRCSSNTPPLTCQRYCNASVTNSVKGTNA
output: 0.0323
